The measured values listed here are drawn from PubChem BioAssay AID1159580.

Assay Method Text: chemical genetic growth profiling, strain panel (AID 1159580);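 further: tested at 20 µM; growth read once vehicle control cultures reached saturation at 30 °C; lower values mean less growth of the strain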
Condition Set: S. cerevisiae deletion strains, growth OD, locus YLR039C, strain RIC1
Among all 5,500 compounds or so, about 2,000 (36%) were called active. Roughly 18% stayed inconclusive and do not appear here. No stated cut-off is given here; in the data, active means normalized growth mostly below about 0.91 (no sharp cut-off); inconclusive means no clear call, values can overlap the other calls; inactive means mostly above about 0.92. This is one part of the list.
Give your call using only these classes: True (active), False (inactive)

>>> qualitative_label("CCC(C)C(NC)C(=O)O (stereo not given)")
"False"
>>> qualitative_label("C[C@@H]1OC(O[C@H]2[C@H](OC(=O)[C@]34CCC(C)(C)CC3C3=CCC5[C@@]6(C)CC[C@H](OC7O[C@@H](C)[C@H](O[C@@H]8OC[C@@H](O)[C@H](O)[C@H]8O)[C@@H](O)[C@H]7O)C(C)(C)C6CC[C@@]5(C)[C@]3(C)CC4O)OC[C@H](O)[C@H]2O)[C@H](O)[C@H](O)[C@H]1O[C@@H]1O[C@H](CO)[C@@H](O)[C@H](O)[C@H]1O (stereo not given in full)")
"False"
>>> qualitative_label("N[C@H](C(=O)O)[C@@H]1CC(Cl)=NO1")
"True"
>>> qualitative_label("C[C@@H]1CC[C@H]2[C@@H](C)C(O)O[C@@H]3O[C@@]4(C)CC[C@@H]1[C@]32OO4 (stereo not given in full)")
"True"

Now consider the entry below.
Could you please tell me the result logged for C[C@@H]1C(=O)O[C@H]2[C@H]1CC[C@@]1(C)C=CC(=O)[C@@]3(C)O[C@@]213 in this assay?
False
